# Tested on: A549
# Assay Comment: IC50 cell viability (Alamar Blue, 96 h)
Assay Metric: log10 IC50 cell viability (log10 of the value in nM)
The common logarithm of IC50 cell viability in nM is what is listed.

Return log10 IC50 cell viability measured with A549 given this compound: CC[C@@]1([C@@H]2O[C@@H]([C@H]3O[C@@](O)(CO)[C@H](C)C[C@@H]3C)C[C@@H]2C)CC[C@H]([C@]2(C)CC[C@]3(C[C@H](O)[C@@H](C)[C@@H]([C@@H](C)[C@@H](OC)[C@H](C)C(=O)O)O3)O2)O1 2.37

What measured log10 IC50 cell viability is associated with CN(Cc1cnc2nc(N)nc(N)c2n1)c1ccc(C(=O)N[C@@H](CCC(=O)O)C(=O)O)cc1 [Methotrexate] on A549? 1.73

API: value(readout= log10 IC50 cell viability, system= A549, query= COc1ccccc1S(=O)(=O)Nc1ccc2c(c1)CN(C)C(=O)N2 ) 2.46

Give recorded log10 IC50 cell viability with A549 for the following compound: CC[C@@]1(O)C(=O)OCc2c1cc1n(c2=O)Cc2cc3c(CN(C)C)c(O)ccc3nc2-1 2.07

Give recorded log10 IC50 cell viability with A549 for the following compound: Cc1sc2c(c1C)C(c1ccc(Cl)cc1)=N[C@@H](CC(=O)Nc1ccc(O)cc1)c1nnc(C)n1-2 2.89

====

# System: A549
# Assay Comment: IC50 cell viability (Alamar Blue, 96 h)
Assay Metric: IC50 cell viability

I would be grateful if you could share the reported IC50 cell viability for O=C1c2c(O)ccc(O)c2C(=O)c2c(NCCNCCO)ccc(NCCNCCO)c21 [Mitoxantrone] . < 2.5 nM

What value of IC50 cell viability has been recorded for this entry: CCCOc1ccn2c(C(C)=O)cc(-c3ccccc3S(C)(=O)=O)c2c1 [GSK-2801] > 10000 nM

Which IC50 cell viability reading was recorded for the compound CC(=O)O[C@@]12CO[C@@H]1C[C@H](O)[C@@]1(C)C(=O)[C@H](O)C3=C(C)[C@@H](OC(=O)[C@H](O)[C@@H](NC(=O)OC(C)(C)C)c4ccccc4)C[C@@](O)([C@@H](OC(=O)c4ccccc4)[C@H]21)C3(C)C [Docetaxel] ? < 2.5 nM
